Target: cloned human NR1/NR2B ion channels (Homo sapiens (Human), UniProt Q05586+Q13224)
Sequence (Q13224 27-1484, other chains not shown): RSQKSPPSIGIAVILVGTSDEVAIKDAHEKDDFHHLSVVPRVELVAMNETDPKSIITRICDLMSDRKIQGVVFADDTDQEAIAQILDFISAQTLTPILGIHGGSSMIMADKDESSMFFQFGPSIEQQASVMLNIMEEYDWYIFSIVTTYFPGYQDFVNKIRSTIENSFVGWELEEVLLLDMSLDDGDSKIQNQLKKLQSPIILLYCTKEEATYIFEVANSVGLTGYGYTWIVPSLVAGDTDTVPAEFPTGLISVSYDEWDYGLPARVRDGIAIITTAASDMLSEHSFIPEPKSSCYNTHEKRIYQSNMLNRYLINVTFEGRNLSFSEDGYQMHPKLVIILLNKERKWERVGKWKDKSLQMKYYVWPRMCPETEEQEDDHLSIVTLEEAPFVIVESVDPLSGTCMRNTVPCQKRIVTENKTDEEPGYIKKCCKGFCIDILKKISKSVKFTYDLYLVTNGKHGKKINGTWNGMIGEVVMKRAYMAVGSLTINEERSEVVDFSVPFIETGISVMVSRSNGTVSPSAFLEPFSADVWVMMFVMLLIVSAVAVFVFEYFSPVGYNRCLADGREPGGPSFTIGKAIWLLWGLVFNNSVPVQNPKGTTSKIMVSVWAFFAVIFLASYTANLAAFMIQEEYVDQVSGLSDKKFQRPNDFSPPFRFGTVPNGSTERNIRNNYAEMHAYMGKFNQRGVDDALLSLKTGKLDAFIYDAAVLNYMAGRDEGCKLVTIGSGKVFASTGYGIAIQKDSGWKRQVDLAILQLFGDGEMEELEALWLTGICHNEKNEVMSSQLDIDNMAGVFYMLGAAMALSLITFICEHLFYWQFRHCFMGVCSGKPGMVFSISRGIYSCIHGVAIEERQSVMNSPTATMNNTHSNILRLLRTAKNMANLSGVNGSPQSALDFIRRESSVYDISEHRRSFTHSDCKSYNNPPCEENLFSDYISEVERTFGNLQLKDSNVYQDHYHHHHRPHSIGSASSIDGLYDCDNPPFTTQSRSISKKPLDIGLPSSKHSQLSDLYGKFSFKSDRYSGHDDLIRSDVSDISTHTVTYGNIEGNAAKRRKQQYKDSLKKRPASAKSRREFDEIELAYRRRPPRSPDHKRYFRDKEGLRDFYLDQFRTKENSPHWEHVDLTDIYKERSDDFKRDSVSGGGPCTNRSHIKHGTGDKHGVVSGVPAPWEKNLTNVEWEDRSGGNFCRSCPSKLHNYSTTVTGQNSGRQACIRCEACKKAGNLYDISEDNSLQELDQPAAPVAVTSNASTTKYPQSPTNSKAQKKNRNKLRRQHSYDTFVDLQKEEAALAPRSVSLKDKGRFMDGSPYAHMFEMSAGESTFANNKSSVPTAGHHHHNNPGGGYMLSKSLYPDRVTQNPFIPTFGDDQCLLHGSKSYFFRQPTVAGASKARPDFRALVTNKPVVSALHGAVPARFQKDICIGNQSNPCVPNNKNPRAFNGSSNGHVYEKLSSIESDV
Assay: HNR2BC: effects of test articles on cloned human NR1/NR2B ion channels expressed in mammalian cells (FLIPR calcium flux)
Assay type: cell-based
Conditions: cloned human NR1/NR2B, Table 5
Where a name gives a salt, the structure may show the parent alone.
Readout: IC50 (nM)

Reference set, count: 3
Molecule: O=C(Cn1ccc2ncc(-c3ccnc(C(F)(F)F)c3)cc21)N1CCC1 [Example 109]
Scale Unit: nM
IC50: 158
//
Molecule: Cc1cc(-c2cnc3ccn(CC(=O)N4CCOC(C)C4)c3c2)ccc1F (racemic) [Example 194, trifluoroacetate salt]
Scale Unit: nM
IC50: 158
//
Molecule: CC(C)C(=O)Cn1cc(F)c2ncc(-c3ccc(F)cc3)cc21 [Example 341]
Scale Unit: nM
IC50: 1000

[I] O=C(Cn1ccc2ncc(-c3cc(F)cc(F)c3)cc21)N1CCOCC1 [Example 125]
[II] Cc1ccc(-c2cnc3ccn(CC(=O)NC4CC4)c3c2)cc1 [Example 77]
[III] O=C(Cn1ccc2ncc(-c3cccc(F)c3)cc21)NC1CC1 [Example 76]
[IV] CCc1ccc(-c2cnc3ccn(CC(=O)N4CC(F)C4)c3c2)s1 [Example 281]
[V] CN(C)C(=O)Cn1cc(Cl)c2ncc(-c3cc(F)c(F)c(F)c3)cc21 [Example 152]
Query :: Rank ascending by IC50. Hello, could you send the labels back in the order asked? Thank you.
Result :: IV, I, V, II, III

[a] CCCCn1ccc2ncc(-c3ccc(F)c(C)c3)cc21 [Example 170, trifluoroacetate salt]
[b] O=C(Cn1ccc2ncc(-c3ccccc3)cc21)N1CCOCC1 [Example 85]
[c] O=C(Cn1cc(Cl)c2ncc(-c3ccc(F)cc3)cc21)N1CC(F)C1 [Example 58]
[d] Cc1csc(-c2cnc3ccn(CC(=O)N4CCOCC4)c3c2)c1 [Example 132]
Query :: Exam item: list the entries in increasing order of IC50. Please express your ranking as an ordered list of the labels.
Result :: c, b, d, a
(c: 25.1 nM, b: 63.1 nM, d: 126 nM, a: 316 nM)

[A] Cc1ccc(-c2cnc3ccn(CC(=O)N4CCOCC4)c3c2)cc1 [Example 90]
[B] Cc1cc(-c2cnc3ccn(C[S+](C)[O-])c3c2)ccc1F (racemic) [Example 331]
Query :: Select one. Lower IC50: A or B Please identify the chosen entry by its label.
Result :: A
(A: 63.1 nM, B: 3980 nM)

[1] Cc1cc(F)ccc1-c1cnc2ccn(CC(=O)N3CC(F)(F)C3)c2c1 [Example 261, trifluoroacetate salt]
[2] Cc1cc2ncc(-c3ccccc3)cc2n1CC(=O)N1CCCC1 [Example 42]
Query :: Which one would you say has the larger IC50 value: 1 , or 2 ? Record your answer as the label of the chosen record.
Result :: 2
(2: 2510 nM, 1: 50.1 nM)
